quantity.measured: melting point

O=S(=O)(Nc1ncccn1)c1ccc(N=Cc2ccc(Cl)cc2Cl)cc1 [3q] ... 291 to 293 °C
O=S(=O)(Nc1ncccn1)c1ccc(N=Cc2ccc(F)cc2F)cc1 [3r] ... 279 to 281 °C
O=S(=O)(Nc1ncccn1)c1ccc(N=Cc2ccc(Cl)cc2F)cc1 [3p] ... 275 to 277 °C

Would you mind listing melting point for each of the following compounds?
1. CN(C)c1ccc(C=Nc2ccc(S(=O)(=O)Nc3ncccn3)cc2)cc1 [3f]
2. Cc1ccc(C=Nc2ccc(S(=O)(=O)Nc3ncccn3)cc2)c(O)c1 [3u]
3. O=S(=O)(Nc1ncccn1)c1ccc(N=Cc2ccc(Br)cc2F)cc1 [3n]
4. O=S(=O)(Nc1ncccn1)c1ccc(N=Cc2ccc(Br)cc2Br)cc1 [3s]
5. O=S(=O)(Nc1ncccn1)c1ccc(N=Cc2ccc(F)cc2)cc1 [3g]
6. O=S(=O)(Nc1ncccn1)c1ccc(N=Cc2ccccc2)cc1 [3a]

a:
275 to 277 °C
279 to 281 °C
291 to 293 °C
273 to 275 °C
283 to 285 °C
269 to 271 °C

* * *

Molecular target: Jack bean urease (Canavalia ensiformis, UniProt P07374)
Sequence (P07374 whole entry, looked up): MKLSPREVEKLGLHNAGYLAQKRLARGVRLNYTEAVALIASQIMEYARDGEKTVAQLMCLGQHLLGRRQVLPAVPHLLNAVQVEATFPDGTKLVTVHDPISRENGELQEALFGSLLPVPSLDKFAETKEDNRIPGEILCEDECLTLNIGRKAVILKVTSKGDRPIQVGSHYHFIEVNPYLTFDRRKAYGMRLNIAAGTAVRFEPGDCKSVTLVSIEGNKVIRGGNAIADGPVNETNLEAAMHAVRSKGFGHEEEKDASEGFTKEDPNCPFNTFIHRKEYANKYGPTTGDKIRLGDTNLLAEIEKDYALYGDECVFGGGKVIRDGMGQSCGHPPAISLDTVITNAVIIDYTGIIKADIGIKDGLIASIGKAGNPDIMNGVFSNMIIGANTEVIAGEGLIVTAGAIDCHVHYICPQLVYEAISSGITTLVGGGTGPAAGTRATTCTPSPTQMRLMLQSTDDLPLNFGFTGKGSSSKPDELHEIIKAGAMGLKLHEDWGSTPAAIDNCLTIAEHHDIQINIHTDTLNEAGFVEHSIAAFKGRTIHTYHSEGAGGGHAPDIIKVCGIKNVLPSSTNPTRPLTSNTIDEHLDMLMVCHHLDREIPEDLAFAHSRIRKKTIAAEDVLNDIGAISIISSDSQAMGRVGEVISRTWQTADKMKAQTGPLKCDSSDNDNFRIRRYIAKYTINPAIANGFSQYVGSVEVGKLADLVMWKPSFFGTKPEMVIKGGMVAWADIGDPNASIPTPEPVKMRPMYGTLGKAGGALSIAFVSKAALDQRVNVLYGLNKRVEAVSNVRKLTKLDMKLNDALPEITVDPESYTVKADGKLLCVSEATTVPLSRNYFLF
Assay: biochemical
Conditions: incubation 37 °C 30 min, absorbance 625 nm, triplicate; positive control thiourea; read-out: IC50 urease inhibition
Procedure: All the synthesized derivatives were subjected to anti-urease activity. In preliminary screening, all compounds were evaluated at 1 mM concentrations, and percentage inhibition was used as an indicator of activity. IC50 values were calculated for the scaffolds having percentage inhibition higher than 50%. Indophenol method was used to perform the urease inhibition. […] 96 well plates were used in enzyme assay and for reading of absorbance at 625 nm a microplate reader was helpful. […]
quantity.measured: IC50 (µM)
Numbers only, in µM.

q: Find IC50 (Jack bean urease (Canavalia ensiformis, UniProt P07374)) for the entry NC(N)=S [thiourea, reference compound]
a: 20

* * *

Target: Jack bean urease (Canavalia ensiformis, UniProt P07374)
Experiment: biochemical
quantity.measured: log10 IC50 (log10 of the value in µM)
Give log10 of IC50, with IC50 taken in µM.

Required: log10 IC50, one value per compound below.
1. O=S(=O)(Nc1ncccn1)c1ccc(N=Cc2ccc(Cl)cc2Cl)cc1
2. O=S(=O)(Nc1ncccn1)c1ccc(N=Cc2ccc(Cl)cc2O)cc1
3. CN(C)c1ccc(C=Nc2ccc(S(=O)(=O)Nc3ncccn3)cc2)cc1
4. O=S(=O)(Nc1ncccn1)c1ccc(N=Cc2ccc(F)cc2Cl)cc1

a:
1: 0.61; 2: 1.41; 3: 1.12; 4: 1.20

* * *

Exercise: for every item that follows, state its recorded melting point.

O=S(=O)(Nc1ncccn1)c1ccc(N=Cc2ccc(Cl)cc2Br)cc1 [3o] ... 277 to 279 °C
O=S(=O)(Nc1ncccn1)c1ccc(N=Cc2ccc(F)cc2Cl)cc1 [3m] ... 277 to 279 °C

Would you mind giving melting point for every molecule in the list below?
1. O=S(=O)(Nc1ncccn1)c1ccc(N=Cc2ccc(F)cc2Br)cc1 [3l]
2. O=S(=O)(Nc1ncccn1)c1ccc(N=Cc2ccc(O)cc2)cc1 [3t]
3. O=[N+]([O-])c1ccc(C=Nc2ccc(S(=O)(=O)Nc3ncccn3)cc2)cc1 [3e]
4. O=S(=O)(Nc1ncccn1)c1ccc(N=Cc2ccc(Cl)cc2O)cc1 [3i]

a:
1. 285 to 287 °C
2. 271 to 273 °C
3. 274 to 276 °C
4. 285 to 287 °C

Record melting point per entry; entries follow.
1. O=S(=O)(Nc1ncccn1)c1ccc(N=Cc2ccc(F)cc2O)cc1 [3j]
2. COc1ccc(C=Nc2ccc(S(=O)(=O)Nc3ncccn3)cc2)c(O)c1 [3d]
3. COc1ccc(C=Nc2ccc(S(=O)(=O)Nc3ncccn3)cc2)cc1 [3h]

a:
279 to 281 °C
266 to 267 °C
287 to 289 °C

q: melting point for O=S(=O)(Nc1ncccn1)c1ccc(N=Cc2ccc(O)cc2O)cc1 [3k] ?
a: 280 to 282 °C

* * *

Target: Jack bean urease (Canavalia ensiformis, UniProt P07374)
Experiment: biochemical
pIC50: −log10 of the molar value.
Decision: pIC50 compared against 5; not below it gives Yes, below it gives No.

Worked examples follow.
O=S(=O)(Nc1ncccn1)c1ccc(N=Cc2ccc(F)cc2O)cc1 [3j] ... No
O=S(=O)(Nc1ncccn1)c1ccc(N=Cc2ccccc2)cc1 [3a] ... Yes
COc1ccc(C=Nc2ccc(S(=O)(=O)Nc3ncccn3)cc2)cc1 [3h] ... No

q: Confirm if pIC50 reported for the compound O=S(=O)(Nc1ncccn1)c1ccc(N=Cc2ccc(Br)cc2F)cc1 [3n] is 5 or above.
a: No

q: Next compound up: O=S(=O)(Nc1ncccn1)c1ccc(N=Cc2ccc(F)cc2Br)cc1 [3l]
a: Yes

q: Likewise for O=S(=O)(Nc1ncccn1)c1ccc(N=Cc2ccc(Cl)cc2F)cc1 [3p] ?
a: No

* * *

Target: Jack bean urease (Canavalia ensiformis, UniProt P07374)
Assay: biochemical
quantity.measured: pIC50
Numbers only, as −log10 of the molar value.

O=S(=O)(Nc1ncccn1)c1ccc(N=Cc2ccc(O)cc2)cc1 ... 5.05
O=S(=O)(Nc1ncccn1)c1ccc(N=Cc2ccc(F)cc2)cc1 ... 4.99
O=S(=O)(Nc1ncccn1)c1ccc(N=Cc2ccc(Br)cc2Br)cc1 ... 5.22

Here are 5 compounds. What values of pIC50 were reported for them?
1. O=S(=O)(Nc1ncccn1)c1ccc(N=Cc2ccc(Cl)cc2Br)cc1
2. O=S(=O)(Nc1ncccn1)c1ccc(N=Cc2ccc(O)cc2O)cc1
3. O=S(=O)(Nc1ncccn1)c1ccc(N=Cc2ccccc2O)cc1
4. O=S(=O)(Nc1ncccn1)c1ccc(N=Cc2ccc(F)cc2F)cc1
5. O=[N+]([O-])c1ccc(C=Nc2ccc(S(=O)(=O)Nc3ncccn3)cc2)cc1

a:
[5.30, 4.92, 5.48, 4.88, 5.38]
